experimental_system: JFH-1 NS3 (Hepatitis C virus genotype 2a strain …, UniProt Q99IB8 1031-1661)
Sequence (Q99IB8 1031-1661): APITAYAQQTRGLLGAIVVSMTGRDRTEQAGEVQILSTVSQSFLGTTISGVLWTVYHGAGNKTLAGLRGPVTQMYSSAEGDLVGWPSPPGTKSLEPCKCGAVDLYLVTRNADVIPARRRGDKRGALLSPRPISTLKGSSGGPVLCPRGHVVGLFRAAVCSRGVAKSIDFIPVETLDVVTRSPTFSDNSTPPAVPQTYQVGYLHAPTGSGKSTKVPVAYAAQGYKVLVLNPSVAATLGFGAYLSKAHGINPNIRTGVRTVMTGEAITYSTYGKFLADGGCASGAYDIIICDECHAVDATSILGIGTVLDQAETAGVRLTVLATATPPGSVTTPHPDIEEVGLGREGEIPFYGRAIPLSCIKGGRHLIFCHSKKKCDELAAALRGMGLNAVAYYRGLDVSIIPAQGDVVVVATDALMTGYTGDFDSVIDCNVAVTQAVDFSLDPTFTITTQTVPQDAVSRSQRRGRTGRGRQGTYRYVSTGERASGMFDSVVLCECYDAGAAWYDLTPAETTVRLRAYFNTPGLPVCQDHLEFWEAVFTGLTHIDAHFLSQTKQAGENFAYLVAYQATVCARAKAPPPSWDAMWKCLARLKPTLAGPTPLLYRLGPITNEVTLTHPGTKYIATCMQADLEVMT
assay_explanation: filter binding; 3 mM Mg2+; (stopped-flow kon 15 uM-1 s-1, Fig 2C); 25 mM MOPS-NH4+ pH 6.5, 3 mM MgCl2, 30 mM NaCl, 1% glycerol, 2 mM DTT, 0.1% Triton X-100; filter binding 37 C, 0.5 nM RNA, Hill fit; stopped flow 25 C
run_parameters: protein: recombinant; tags: His6-SUMO removed (native N terminus); 5' Cy3 top strand via C3 amino linker (stopped flow); 3' overhang 6 nt on strand 1

binder	Kd
12bp/6-OH (dsRNA) RNA 1: CGGCAGCGAGGCAGGACA RNA 2: GCCUCGCUGCCG	14.9 nM
